Data credit: patent US10363239B2

System: mu opiate receptor (MOR)
Assay: MOR agonist activity using [35S]GTPγS binding assay in striatal membranes
Format: biochemical
Details: 1 μM compound relative to DAMGO
ASSAY_METRIC: % DAMGO (1 μM) (%)
Return type: number; implicit unit %.

Record excerpt, results attached:
Task: Please report % DAMGO (1 μM) for the following molecule: CC1CN(CC(O)COc2ccc(Br)c(Cl)c2)CC(C)O1 (centres unmarked)
Result: 99.3

Task: Give % DAMGO (1 μM) for COc1ccc(OCC(O)CN2CCCc3ccccc32)cc1 (centres unmarked)
Result: 115.8

Task: State, in one line, measured % DAMGO (1 μM) of CC1CN(CC(O)COc2ccccc2Br)CC(C)O1 (centres unmarked)
Result: 81.1

Task: Quickly give me recorded % DAMGO (1 μM) for CC1CCC(C(C)C)C(OCC(O)Cn2ccc3ccccc32)C1 (centres unmarked)
Result: 92.3

We now examine a further molecule.
Task: Return reported % DAMGO (1 μM). Input molecule: CC1CCC(C(C)C)C(OCC(O)CN2CCOc3ccccc32)C1 (centres unmarked)
Result: 89.0

###

Overview of recorded % DAMGO (0.1 μM) for various compounds
System: mu opiate receptor (MOR)
Test: MOR agonist activity using [35S]GTPγS binding assay in striatal membranes
Type: biochemical
Settings: Series C-2; 0.1 μM compound, relative to DAMGO
# value in %; strip the unit string

Task: In one line, give reported % DAMGO (0.1 μM) of the entry CN1CCC2(CC1)NCC(=O)N2Cc1ccccc1 [Compound C0105M] .
Result: 104.7

Task: Name the recorded % DAMGO (0.1 μM) of the compound listed here: COc1ccc(S(=O)(=O)N2CCOC23CCCNC3)cc1 (centres unmarked) [Compound C0145M-3]
Result: 112.2

Task: Indicate its recorded % DAMGO (0.1 μM); the compound in question is CC(=O)c1ccc(S(=O)(=O)N2CC(CN(C)C)OC23CCNCC3)cc1 (centres unmarked) [Compound C0118M]
Result: 87.8

Task: Return the recorded % DAMGO (0.1 μM) value; entry: COc1ccc(S(=O)(=O)N2CCOC23CCN(CC2CC2)CC3)cc1 [Compound C0090M]
Result: 137.7

--- query ---
Task: Return value of % DAMGO (0.1 μM) for input O=C1CN(Cc2ccccc2)C2(CCN(CC3CC3)CC2)N1 [Compound C0125M] , no commentary.
Result: 89.1

###

Test system: mu opiate receptor (MOR)
Assay: MOR agonist activity using [35S]GTPγS binding assay in striatal membranes
Type: biochemical
Details: Series B; 1 μM compound, relative to DAMGO
Reported values of % DAMGO (1 μM) for individual entries
Please state the value followed by its unit.

A selection of reference data follows.
Task: Assign % DAMGO (1 μM) to the following record: COc1c2c(cc3c1C(CC(=O)Cc1ccc(C#N)cc1)[N+](C)(C)CC3)OCO2 (stereo not shown)
Result: 79.4%

Task: Indicate the recorded % DAMGO (1 μM) value for this molecule: COc1ccccc1CC(O)CC1c2c(cc3c(c2OC)OCO3)CCN1C (stereo not shown)
Result: 103.4%

Task: In one line, give reported % DAMGO (1 μM) of the entry COc1ccc(CCC(O)CC2c3c(cc4c(c3OC)OCO4)CC[N+]2(C)C)cc1 (stereo not shown) .
Result: 143.1%

Task: Give % DAMGO (1 μM) for the following molecule: COc1ccc(CCCCC2c3c(cc4c(c3OC)OCO4)CC[N+]2(C)C)cc1 (stereo not shown)
Result: 113.6%

Task: Report % DAMGO (1 μM) for COc1c2c(cc3c1C(CC(=O)Cc1ccccc1C)[N+](C)(C)CC3)OCO2 (stereo not shown)
Result: 99.6%

Next:
Task: Return the recorded % DAMGO (1 μM) value; entry: COc1c2c(cc3c1C(CC(=O)CCc1ccc(Cl)cc1)[N+](C)(C)CC3)OCO2 (stereo not shown)
Result: 45.6%

Task: Please give measured % DAMGO (1 μM) of the following entry: COc1c2c(cc3c1C(CC(=O)Cc1ccc(Br)cc1)[N+](C)(C)CC3)OCO2 (stereo not shown)
Result: 78.7%
